# assay-target: UniProt:Q16790
# method-description: stopped-flow CO2 hydration assay, hCA IX
# Format: biochemical
# assay-setup: ratio of KI hCA I to KI hCA IX
property: SI I/IX

COCCOc1cc2ncnc(Nc3cccc(-c4cn(CCOCCOCCOCCNC(=S)Nc5cccc(S(N)(=O)=O)c5)nn4)c3)c2cc1OCCOC = 23.8
COCCOc1cc2ncnc(Nc3cccc(-c4cn(CCOCCOCCOCCOCCOCCNC(=O)NCc5ccc(S(N)(=O)=O)cc5)nn4)c3)c2cc1OCCOC [compound 12c] = 0.41
COCCOc1cc2ncnc(Nc3cccc(-c4cn(CCOCCOCCOCCNC(=S)NCCc5ccc(S(N)(=O)=O)cc5)nn4)c3)c2cc1OCCOC = 32.6
COCCOc1cc2ncnc(Nc3cccc(-c4cn(CCOCCOCCOCCOCCOCCC(=O)NCc5ccc(S(N)(=O)=O)cc5)nn4)c3)c2cc1OCCOC [compound 10a] = 0.22
COCCOc1cc2ncnc(Nc3cccc(-c4cn(CCOCCOCCOCCOCCOCCNC(=O)Nc5cccc(S(N)(=O)=O)c5)nn4)c3)c2cc1OCCOC [compound 12a] = 15.7

I. COCCOc1cc2ncnc(Nc3cccc(-c4cn(CCOCCOCCOCCOCCOCCNC(=S)NCc5ccc(S(N)(=O)=O)cc5)nn4)c3)c2cc1OCCOC [compound 14c]
II. COCCOc1cc2ncnc(Nc3cccc(-c4cn(CCOCCOCCOCCNC(=O)Nc5cccc(S(N)(=O)=O)c5)nn4)c3)c2cc1OCCOC
query: I would appreciate it if you could say which entry, I or II , has the lower SI I/IX value. Refer to your chosen item by its label in the answer.
result: I
(I: 1.33, II: 164)
